# system.tested: Gal(b1-3)GlcNAc(b1-3)Gal(b1-4)GlcNAc(b1-3)Gal(b1-4)GlcNAc(b1-2)[Gal(b1-3)GlcNAc(b1-3)Gal(b1-4)GlcNAc(b1-3)Gal(b1-4)GlcNAc(b1-6)]Man(a1-6)[Gal(b1-3)GlcNAc(b1-3)Gal(b1-4)GlcNAc(b1-3)Gal(b1-4)GlcNAc(b1-2)Man(a1-3)]Man(b1-4)GlcNAc(b1-4)[Fuc(a1-6)]GlcNAc
# procedure.text: glycan array binding signal (z-score within array); higher = stronger binding
# experimental.parameters: glycan notation: IUPAC condensed, linker removed
Many of the other results were omitted from the sample, so the strongest signals are more common in it than they were.
measurement.label: glycan array binding signal (z-score)
Response field accepts a number only; no unit should be typed.

Note to self: glycan array binding signal (z-score) recorded for DrGRIFIN (Danio rerio), Q6DGJ1 (protein) MTLRFEASCPDGLCPGWSVILKGETPPEASKFEINFLCDRDDRVAFHFNPRFTESDIICNSYMANRWGQEERCNHFPLGVEEPFQIEIYSDNDHFHVYIDKAKVMQYKHRVEDLKTITKLQVVNDVKISSLEITKKLFY was -0.107

Note to self: glycan array binding signal (z-score) recorded for Sebin2 (Coprinopsis cinerea), A8PE78 (protein) MTTPFYAYCHNVQDDNTWRLGLVFANRSTADEWWRAISEATSSIPITKSITRVTPQYYTHDIRVWNMYNFFVDGNIKSISDKFRGRLFITLEYDRSGRGVSVFPPLHIVDHVSGNWYYIRSKTAPHLFWFYDETRNAIYASKEKRTRFKVSIRNPSPQTPKDAIMINSDDVVIHIKESLYVGVDSYLGHIIPTRAYRTFKFGELEGGAIAGIEVAENAEERCSSTFDGASLYFVGPDSSSPGEPWELV was 0.29

Note to self: glycan array binding signal (z-score) recorded for EEA (Euonymus europaeus) (protein) MASTIIATGPTYRVYCRAAPNYNMIVGKGVAFLAPIDETNELQYWYKDDTYSYIKDEAGLPAFSLVNKATGLTLKHSNHHPVPVKLVTYNPNVVDESVLWSQADDRGDGYSAIRSLTNPASHLEAAPLNDWSYNGAIIMGGVWIDAYNQQWKIEPHTG was -0.049

Note to self: glycan array binding signal (z-score) recorded for CpGal16 (Clavelina picta) (protein) MAKMITNYVGKRIECIMVATDMMSTVFSLASATGDLPFYINFRQRENSIVMNTRVHGKWQYEKSQSSGGMNFYEPFRLVVEVRPSVFKVTVSTMGEEDGITFNLQYSQITIKPDEIVAMHLGYCNLRSELLVTDL was 4.48

Note to self: glycan array binding signal (z-score) recorded for SP15308C-bot-338-23-338 (Bacteroides ovatus) (protein) DEWTDEQFKQLISFKTQPGGWGVTDVHVRYANSAKYTYNLPVLVSGSTDNTDDRLVSFSLRDDTLDILNFEKFGNRPELYFRELPQKYYSFPKELTIPAGQSHALLPIEFSLDGLDDSQKWALPLKVCEDANGTYAVNPRKYYRTAVLRPILFNEFSGRFSGSSLLGTMAGESDIKFSSTEIKLNVVTDSIVFFYAGQRTEDYEDRINYKVFLQFTGDKVDSKKDLYKMKIWAENEKLKFNSYSTPTYKVSSEMDATKTYLKHTYIVISDIDFDFVDYTSVPNYEIEYNMKGGLSVSRDLDTRKPDEDQGSDSKWW was 3.59

Note to self: glycan array binding signal (z-score) recorded for Ovorubin (Pomacea canaliculata), J7I2T6 (protein) MFVATSLLLAIATLVVRASPHNYLIMDIEPPKSVSERDILNLLSPLQVKHSFRVTGSTRLLIVIRLDAQSYEKLDEITVPGKVEVIPAVNMADTMERCGVSWPRVELTDDNVTLFESESTLTDVTKEQLKAMLIGYGEHMSGLLQAHRFEYYQAAGATPHRHFVFVNSVPDEIEVFGREGVDIWGGPGEFVVKPQYVTRI was 2.9
